# target or test system: anti-A025 antibody (IL-1beta PET)
# procedure summary: peptide competition assay in 6% BSA
Where no end group is shown, it is not given here.
endpoint name: IC50

Given the binder Ac-SLVMSGPYELKC [A025 peptide (IL-1beta), Ac-…] , what is its reported IC50?
5 nM
